Origin of the recorded values: PubChem BioAssay (NCI)

# Test system: NCI-H226 lung
# method-notes: NCI-60 one-dose screen, 48 h (100 = growth as untreated, 0 = no growth, -100 = all killed)
# condition-parameters: 10 µM
The panel holds about 83,000 compounds, 20% with a hit somewhere; the sample as a whole holds those more often.
readout: growth (%)
Numbers only, in %.

| smiles-string | growth, % |
| --- | --- |
| C[C@]12CC[C@H]3[C@@H](CC=C4C[C@@H](O)CC[C@@]43C)[C@@H]1CC[C@@H]2C(=O)C/C=N/O | 107 |
| CCOC(=O)c1sc(Nc2ncccn2)nc1-c1ccccn1 | 92.8 |
| COc1ccc2nc(C)cc(Nc3ccc(Cl)cc3)c2c1 | 99.9 |
| CCCCNC(=O)Oc1ccc(/C(=C(\C)c2ccc(OC)cc2)c2ccc(OCCN3CCCCC3)cc2)cc1 | 96.5 |
| CC1(C)CCc2cc(-c3ccn(S(=O)(=O)c4ccc(Cl)cc4)n3)ccc2O1 | 74.4 |

Fill in growth for each of the 3 molecules listed.
1. O=C(C=P(c1ccccc1)(c1ccccc1)c1ccccc1)c1ccc(Br)cc1
2. COc1ccc(-c2nc3sc(-c4ccccc4)c(-c4ccccc4)n3c2/C=C/c2ccc(F)cc2)cc1
3. O=C(O)c1cc(C(F)(F)F)cc(C(F)(F)F)c1

[96.5, 107, 111]

---

Consider the following molecules; for each one, report its growth.
# Tested on: MCF7 breast
# method-notes: NCI-60 one-dose screen, 48 h (100 = growth as untreated, 0 = no growth, -100 = all killed)
# condition-parameters: 10 µM
Compounds without any hit were thinned out: in the full panel of roughly 83,000, 20% have a hit.
Give bare numbers, in %.

Answered examples (3):
| molecule | assayed-target | quantitative-readout |
| --- | --- | --- |
| CCCCOCC(=O)NC(NP(=O)(N(C)C)N(C)C)C(Cl)(Cl)Cl (stereo not drawn) | MCF7 breast | 103 |
| CCOc1nc(-c2ccccc2)cc2c(O)c(C(=O)NC(C)C)[nH]c(=O)c12 | MCF7 breast | 98.9 |
| FC(F)(F)c1ccc(-c2cnc(Cl)nc2NC2CCCCCC2)cc1 | MCF7 breast | 20.7 |

Required: growth, one value per molecule below.
1. Cc1c(C(=O)N[C@H](CO)Cc2ccccc2)[nH]c2ccc(Cl)cc2c1=O
2. Cc1cn(C(=O)/C(Cl)=C(/Cl)C(=O)O)c2ccccc12
3. CC1(C)CCc2cc(-c3ccn(S(=O)(=O)c4ccc(Cl)cc4)n3)ccc2O1
4. COc1ccc(-c2nc(-c3nc4ccc(OC)cc4[nH]3)c3ccccn23)cc1
5. N#CN1CC[C@H](C(=O)Nc2ncc(-c3ccncc3)s2)C1
6. CC1=CSC2=NC(c3ccc(Cl)c(Cl)c3)=CC(c3ccc(Cl)cc3)N12 (stereo not drawn)
7. Cc1cc(OI)c(C(C)C)cc1-c1cc(C(C)C)c(OI)cc1C

1: 92.7; 2: 108; 3: 71.3; 4: 69.4; 5: 2.99; 6: 54.3; 7: 92.6

---

Kindly supply the reported growth values for the records listed here.
# Test system: A549/ATCC NSCLC
# method-notes: NCI-60 one-dose screen, 48 h (100 = growth as untreated, 0 = no growth, -100 = all killed)
# condition-parameters: 10 µM
This is part of a sample that, as a whole, favours compounds with a hit. Of some 83,000 tested, about 20% had one in any assay.
Give bare numbers, in %.

| compound | units-text | quantitative-readout |
| --- | --- | --- |
| CCOC(=O)c1cc(-c2ccccc2)nc(N)n1 | % | 102 |
| COc1ccc(-n2nnc3c(sc4ccccc43)c2=O)cc1 | % | 10.8 |
| CCCCCCCCCCCC(=O)NCCCN(C)C | % | 91.4 |
| Cc1ccccc1[P+](Cc1ccccc1)(c1ccccc1)c1ccccc1 | % | 19.7 |
| NC1CCC(Nc2nc(NCc3ccc(-c4ccccc4O)nc3)c3ncn(C4CCCC4)c3n2)CC1 (centres undefined) | % | -25.2 |

Parameters: items (list). Returns: growth for each item.
1. CCOC(=O)c1cc2c(n1Cc1cc(OC)cc(OC)c1)-c1oncc1CC2
2. CCCCCCCCCCCC(c1ccccc1)N(C)C (centres undefined)
3. C=C[C@]1(C)C=C2C(=O)[C@@]3(O)OC(=O)[C@@]4(CCCC(C)(C)[C@H]34)[C@@]2(O)CC1
4. FC(F)(F)c1ccc(-c2cnc(Cl)nc2NCc2cc(C(F)(F)F)cc(C(F)(F)F)c2)cc1
5. Fc1cc(-c2ncc(-c3cc(F)c(F)c(F)c3)c(NC3CCCCCC3)n2)cc(F)c1F

29
97.5
-66.6
15.8
85.6

Lab note: each compound below needs its growth filled in.
1. COC(=O)c1c(C)nc(Nc2nc3ccccc3s2)nc1-c1ccc(Cl)cc1Cl
2. COc1cc(Cn2c(-c3ccccc3)c(Cl)c3c2-c2oncc2CC3)cc(OC)c1
3. CC[C@@]1(C(N)=O)CC2C=CC1C2 (some centres undefined)
4. O=C(NC1CCN(Cc2ccccc2)CC1)c1cc(-c2ccncc2)nc2ccc(Cl)cc12
5. O=C(Nc1ccc(OS(=O)(=O)Cc2ccccc2)cc1)C12CC3CC(CC(C3)C1)C2

1: 107; 2: 53.5; 3: 107; 4: 6.48; 5: 78.5

Quick request: growth for each listed item, please.
1. O=C(CCCC(=O)N/N=C/c1cc(Cl)ccc1O)N/N=C\c1cc(Cl)ccc1O
2. Cc1ccc(NS(=O)(=O)c2ccccc2)c(NS(=O)(=O)c2ccccc2)c1
3. CC(=O)CS(C)(=O)=O
4. COc1cccc(C(=O)NNc2nc(N3CCOCC3)nc(N3CCN(C(c4ccccc4)c4ccccc4)CC3)n2)c1

1: 29.5; 2: 103; 3: 96.7; 4: 62.4

---

# Tested on: SK-MEL-5 melanoma
# method-notes: NCI-60 one-dose screen, 48 h (100 = growth as untreated, 0 = no growth, -100 = all killed)
# condition-parameters: 10 µM
Compounds without any hit were thinned out: in the full panel of roughly 83,000, 20% have a hit.
readout: growth (%)
Numbers only, in %.

| compound | growth, % |
| --- | --- |
| COc1cc(C(c2c[nH]c3ccccc23)N2CCCC2)ccc1OCc1ccccc1 (stereo unspecified) | 75.6 |
| COc1ccc(-c2[nH]ncc2-c2cc(OC)c(OC)c(OC)c2)cc1 | -22.1 |
| CCc1c(C)[nH]c(=O)c(C(N)=O)c1C#N | 103 |
| COc1ccc(-n2nnc3c(sc4ccccc43)c2=O)cc1 | 74.5 |

Count: 5. Required value per item: growth.
1. CCCCCN(CCCCC)C(C)C(O)c1ccc2cc(Cl)c3ccccc3c2c1 (stereo unspecified)
2. Cc1cc(O)c(C2=NN(c3ccc(S(N)(=O)=O)cc3)C(c3ccc(N(C)C)cc3)C2)c(C)c1Cl (stereo unspecified)
3. COc1ccc(OC)c([N+](=O)[O-])c1C=O
4. COC(=O)c1ccc(Cn2ccc(=O)[nH]c2=O)cc1
5. COc1ccc(/C(CS(=O)(=O)c2ccccc2)=N\O)cc1

1: 89.9; 2: 79.6; 3: 96.1; 4: 109; 5: 95.8

---

# System: NCI-H226 lung
# method-notes: NCI-60 one-dose screen, 48 h (100 = growth as untreated, 0 = no growth, -100 = all killed)
# condition-parameters: 10 µM
Compounds without any hit were thinned out: in the full panel of roughly 83,000, 20% have a hit.
readout: growth (%)
Give bare numbers, in %.

Worked cases, growth given:
| compound | assayed-target | units-text | growth |
| --- | --- | --- | --- |
| COc1ccc2nc(-c3ccccc3)cc(C(C)=O)c2c1 | NCI-H226 lung | % | 87.6 |
| Clc1cc(Cl)c(Cl)c(-c2nc(-c3cccnc3)cs2)c1 | NCI-H226 lung | % | 90.9 |
| CCc1nn2c(-c3cc(OC)c(OC)c(OC)c3)c(-c3cc(OC)c(OC)c(OC)c3)nc2s1 | NCI-H226 lung | % | 92 |
| CC(=O)OC1Oc2ccccc2-c2oc(=O)c(-c3ccc(F)cc3)cc21 (stereo unspecified) | NCI-H226 lung | % | 91.9 |
| C/C=C\COc1cc(C)c(Cl)cc1Cl | NCI-H226 lung | % | 87.5 |
| COc1ccc(C2=Cc3ccc(OC(C)=O)cc3OC2)cc1 | NCI-H226 lung | % | 91.1 |
| CCOC(=O)c1cc(-c2ccccc2)nc(N)n1 | NCI-H226 lung | % | 89.5 |
| COc1cc(C(=O)n2nc(N)c3c(C)cc(C)nc32)cc(OC)c1OC | NCI-H226 lung | % | 92.1 |

Need growth for each of these compounds.
1. Cc1ccc2nc(-c3ccc(OCC(=O)N=Nc4c(O)[nH]c5ccccc45)cc3)[nH]c2c1
2. CC(=O)OC1Oc2ccccc2-c2oc(=O)c(-c3cc(=O)oc4cc(O)ccc34)cc21 (stereo unspecified)
3. Cc1ccc2c3c(cccc13)-c1ccccc1C2=O

92.6
91.5
91.1
